Overview of reported pest or weed control at 5 µg/cm2, 500 g/ha across a group of compounds:
System: adult brown dog ticks (Rhipicephalus sanguineus)
assay.remarks: Rhipicephalus sanguineus in-vitro contact test, adult brown dog ticks
Format: in vivo
measurement.parameters: application rate 5 μg/cm^2 (=500 g/ha), after 48 hours, read-out: activity (efficacy: ticks dead or moribund)
Description: Rhipicephalus sanguineus—In-Vitro Contact Tests with Adult Brown Dog Ticks 9 mg compound is solved in 1 mL acetone and diluted with acetone to the desired concentration. […] After the solvent has evaporated, each test tube is filled with 5-10 adult brown dog ticks (Rhipicephalus sanguineus), closed with a perforated lid and incubated in a lying position at room temperature and relative humidity. After 48 hours efficacy is determined. […]
Please give a number only; it is taken to be in %.

Recorded pest or weed control at 5 µg/cm2, 500 g/ha, per entry:
compound | target | reported.value
C[C@H](NC(=O)c1cc(C(F)(F)F)cc(C(F)(F)F)c1)c1nc(C2CC2)nn1-c1ccc(C(=O)N2CCOCC2)cn1 | adult brown dog ticks (Rhipicephalus sanguineus) | 100
Cc1nc([C@H](C)NC(=O)c2cc(OC(F)(F)F)cc(C3CC3)c2)n(-c2ccc(C(=O)N3C[C@@H](C)O[C@@H](C)C3)cn2)n1 | adult brown dog ticks (Rhipicephalus sanguineus) | 100
Cc1nc([C@H](C)NC(=O)c2cc(Cl)cc(C(F)(F)F)c2)n(-c2ccc(C(=O)N3CCC3)cn2)n1 | adult brown dog ticks (Rhipicephalus sanguineus) | 100
Cc1nc([C@H](C)NC(=O)c2cc(C(F)(F)F)cc(C(F)(F)F)c2)n(-c2ccc(C(=O)N3C[C@@H](C)O[C@@H](C)C3)cn2)n1 | adult brown dog ticks (Rhipicephalus sanguineus) | 100
C[C@H](NC(=O)c1cc(Cl)cc(C(F)(F)F)c1)c1ncnn1-c1ccc(C(=O)N2CCS(=O)(=O)CC2)cn1 | adult brown dog ticks (Rhipicephalus sanguineus) | 100

// next entry
Give reported pest or weed control at 5 µg/cm2, 500 g/ha value for CCc1nc([C@H](C)NC(=O)c2cc(C(F)(F)F)cc(C(F)(F)F)c2)n(-c2ccc(C(=O)N3CCOCC3)cn2)n1
100

----------
System: larvae of the banded cucumber beetle (Diabrotica balteata)
assay.remarks: Diabrotica balteata spray test
Assay type: in vivo
measurement.parameters: 168 h, application rate 100 g/ha (=32 μg/well), after 7 days, wheat seeds, read-out: activity (efficacy: seedlings grown)
measured.property: pest or weed control at 32 µg/disc, 100 g/ha (%)
Please give a number only; it is taken to be in %.

compound | target | reported.value
CCc1nc([C@H](C)NC(=O)c2cc(C(F)(F)F)cc(C(F)(F)F)c2)n(-c2ccc(C(=O)N3CCOCC3)cn2)n1 | larvae of the banded cucumber beetle (Diabrotica balteata) | 100

Give reported pest or weed control at 32 µg/disc, 100 g/ha value for C[C@@H]1CN(C(=O)c2ccc(-n3ncnc3[C@H](C)NC(=O)c3cc(OC(F)(F)F)cc(C4CC4)c3)nc2)C[C@H](C)O1
100

Give reported pest or weed control at 32 µg/disc, 100 g/ha value for Cc1nc([C@H](C)NC(=O)c2cc(C(F)(F)F)cc(C(F)(F)F)c2)n(-c2ccc(C(=O)N3CCO[C@H](C)C3)cn2)n1
100

----------
System: larvae of the banded cucumber beetle (Diabrotica balteata)
assay.remarks: Diabrotica balteata spray test
Assay type: in vivo
measurement.parameters: 168 h, application rate 100 g/ha (=32 μg/well), after 7 days, wheat seeds, read-out: activity (efficacy: seedlings grown)
Overview of reported pest or weed control at 32 µg/disc, 100 g/ha across a group of compounds:
Please give a number only; it is taken to be in %.

Recorded pest or weed control at 32 µg/disc, 100 g/ha, per entry:
compound | unit.info | reported.value
Cc1nc([C@H](C)NC(=O)c2cc(C(F)(F)F)cc(C(F)(F)F)c2)n(-c2ccc(C(=O)N3CCC(C)CC3)cn2)n1 [Example I-74] | % | 100
Cc1nc([C@H](C)NC(=O)c2cc(C(F)(F)F)cc(C(F)(F)F)c2)n(-c2ccc(C(=O)N3C[C@@H](C)O[C@@H](C)C3)cn2)n1 [Example I-45] | % | 100

// next entry
Give reported pest or weed control at 32 µg/disc, 100 g/ha value for Cc1nc([C@H](C)NC(=O)c2cc(C(F)(F)F)cc(C(F)(F)F)c2)n(-c2ccc(C(=O)N3CCOCC3)cn2)n1 [Example I-9]
100
